# melting point values compiled below
READOUT_TYPE: melting point (°C)

1. CCN1C(=O)C(=C(C)O)SC1=S = 93
2. Cc1cc(O)c(O)cc1CC=Cc1ccccc1 = 85
3. CCCCNC(=O)OC1c2nccnc2C(=O)N1c1ccc2ccc(Cl)nc2n1 (stereo not given) = 264
4. CC1(C)CCc2c(N3CCOCC3)nc3sc4c(NCc5ccccn5)ncnc4c3c2C1 = 218

---

# melting point values compiled below
READOUT_TYPE: melting point

1) CC1Oc2c(cc(CN3CCN(c4ccc(C(=O)NC5CC5)cc4)CC3)cc2C2CC2)NC1=O (stereo not drawn) = 202 to 207 °C
2) COc1ccc2cc([C@H](C)C(=O)OC(C)C(=O)NCC(=O)O)ccc2c1 (stereo partly drawn) = 174 to 175 °C
3) CCOC(=O)C(CC)Oc1ccc(-c2coc3cc4c(cc3c2=O)OCO4)cc1 (stereo not drawn) = 119 to 121 °C
4) Fc1c(Cl)cc(Br)c2ccccc12 = 48 to 51 °C
5) CC(=O)c1cnc(C(=O)C(C)(C)C)cn1 = 41 to 42.5 °C
6) N#CN=C(Nc1cccnc1)NC1(c2cccc(Cl)c2)CCC1 = 102 to 104 °C
7) Clc1ncnc(Cl)c1Oc1ccccc1 = 89 to 90 °C
8) C=C(CCC(C)C1CCC2C3=C(C(=O)CC21C)C1(C)CCC(=O)C(C)C1CC3O)C(C)C(=O)OC (stereo not drawn) = 100 to 101 °C
9) COc1ccccc1[C@H](c1cccc2ccccc12)[C@@](C)(C#N)C(=O)N1CCN(c2ccc(Cl)cc2)CC1 = 178 to 180 °C
10) O=C(O)C(=NOCc1ccccc1)c1csc2ccccc12 = 120 to 121 °C
11) O=C(O)CCCCc1cccc(-c2nc(=O)c3ccccc3s2)n1 = 162 °C
12) Cc1nnc(-c2ccc3occ(-c4cnn(Cc5ccccc5)c4)c3c2)o1 = 151 to 152 °C
13) COC(=O)Cc1ccc(C(F)(F)F)cc1NC(C)=O = 92 to 94 °C
14) CCNc1cc(C(C)=O)ccn1 = 55 to 57 °C
15) COCOc1cc([N+](=O)[O-])c(F)cc1Cl = 78 to 80 °C
16) CC(=O)C(=O)NCc1nnc(C)n1-c1cc(Cl)cc(C(=O)c2ccccc2Cl)c1 = 178 to 180 °C
17) O=C(NCc1ccccc1)c1ccnc(NC(=O)c2cc(F)ccc2Cl)c1 = 180 to 181 °C
18) COc1cc(N)c(Cl)cc1C(=O)NC1CCN(C)C1 (stereo not drawn) = 185 to 187 °C
19) CCCC=Cc1c(C(C)C)nc(C(C)C)c(CO)c1-c1ccc(S(C)=O)cc1 (stereo not drawn) = 133 to 135 °C
20) O=C(Cc1ccc(Cl)cc1)c1ccc(OC(F)F)cc1 = 74 to 76 °C
21) Nc1[nH]c(=S)nc2nc[nH]c12 = 196 to 198 °C
22) O=[N+]([O-])c1cccc(-c2nc(O)cc3cccnc23)c1 = 262 to 265 °C
23) COc1ccc(C2=NN(c3ccc(C(=O)O)cc3)C(=O)[C@H]3CC=CC[C@@H]23)cc1Cl (relative stereo) = 222 to 224 °C
24) CC(=O)OC1CSC(Oc2cncc(-c3c(F)cc(F)cc3F)c2)C(OC(C)=O)C1OC(C)=O (stereo not drawn) = 143 °C
25) Fc1cc(F)c(-c2cncn2-c2ccc(Cl)cc2)c(F)c1 = 170 to 172 °C
26) CC(C)OC(=O)OCC1(C)COC(=O)OC1 = 64 to 65 °C
27) CC(C)Oc1ccc2c(Cl)nc(C(=O)NCCO)c(O)c2c1 = 155 to 156 °C
28) COc1cc2c(c(-c3cc(F)ccc3F)c1)OC(CN)C2 (stereo not drawn) = 118 to 120 °C
29) O=P(c1ccccc1)(c1ccccc1)c1ccccc1C1OCCO1 = 161 to 162 °C
30) CN1C(=O)CN=C(c2ccccc2F)c2c1ccc(NC(=O)NCCO)c2Cl = 150 to 153 °C
31) CCOC(=O)c1ccc(Nc2cc(C)nc3cn[nH]c23)cc1 = 247 to 250 °C
32) CC(=O)c1ccc2c(c1)OCC(=O)N2 = 197 to 198 °C
33) CN(C)CCNC(=O)N1CCC(S(=O)(=O)c2ccc(Cl)cc2)C1 (stereo not drawn) = 131 to 132 °C
34) Cn1c(=O)oc2cc3c(cc21)OCC31C(=O)N(Cc2ccc(C(F)(F)F)o2)c2ccccc21 (stereo not drawn) = 198 to 199 °C
35) Cc1cc(-c2nnn(C)n2)cc(C)c1OCCCn1ncnc1C = 126 to 128 °C
36) Cc1cc(Cl)c2[nH]nc(C)c2n1 = 176 to 178 °C
37) Cc1c(C#N)c(=O)oc2c(C)c(O)c(CC(Br)CBr)cc12 (stereo not drawn) = 175 to 176 °C
38) O=c1c2ccccc2sn1CCN1CCN(c2ccccc2)CC1 = 115 to 117 °C
39) O=C1c2ccc(Cl)cc2CC1Sc1ccccc1 (stereo not drawn) = 89 °C
40) O=C(NO)c1cc2c(Oc3ccc(Cl)cc3)cncc2s1 = 145 °C
41) O=C(c1cc2cc(O)ccc2[nH]1)C12CC3CC(CC(C3)C1)C2 = 197 to 199 °C
42) COc1cc(-c2ncsc2-c2ccc(C(F)(F)F)cc2)cc(OC)c1OC = 110 to 113 °C
43) C=CCOC(=O)CCCS(=O)C1CC(=O)N1CC(=O)NCCCCCCc1ccc(F)cc1 (stereo not drawn) = 95 to 96 °C

---

# melting point values compiled below
READOUT_TYPE: melting point

1) CSc1ccc(-c2nn(CC3CC3)c(=O)cc2-c2ccc(Cl)cc2)cc1 = 142 to 143 °C
2) N=C(N)c1ccc(C(=O)NCCCCC(=O)NC(CC(=O)O)C(=O)NC(Cc2ccccc2)C(=O)O)cc1 (configuration not stated) = 169 to 171 °C
3) CON=CC1CCCN(C(=O)Oc2ccccc2)C1 (configuration not stated) = 40 to 41 °C
4) Cc1nn(C)c(C2=NC(C)CN2)c1[N+](=O)[O-] (configuration not stated) = 98 to 101 °C
5) Nc1nc(N2CCC2)c2ncn(C3CC(F)C(CO)O3)c2n1 (configuration not stated) = 127 to 129 °C
6) O=C(O)CN(CC(=O)O)C(=O)C(=O)c1ccc(OCCCCCCCCCCCCOc2ccccc2)cc1 = 130 to 132 °C
7) COc1ccc(-c2cnn3cnnc3n2)cc1 = 282 to 284 °C
8) O=C(O)COc1ccc(-c2ccc(=O)[nH]n2)cc1Cl = 227 °C
9) CCc1c(OC)nc2nc(C(N)=S)cn2c1C = 248 to 259 °C
10) Cc1noc(NS(=O)(=O)c2ccc([N+](=O)[O-])cc2)c1Br = 146 to 149 °C
11) Nc1c(Cl)ccc2c1NCCC2=O = 105 to 109 °C
12) COc1cccc(P(=O)(c2ccccc2)c2ccccc2)c1I = 186 to 189 °C
13) CN1CC(COC2c3ccccc3CCn3cc(I)nc32)C1 (configuration not stated) = 100 °C
14) Cc1cc(F)c(N)cc1O = 147 °C
15) O=C(CCc1ccc([N+](=O)[O-])cc1)NCCO = 122 to 125 °C
16) CCOC(=O)CCCOc1cccc2cc(/C(C)=C/C(=O)N3CCOCC3)oc12 = 90 to 94.8 °C
17) CCOC(=O)c1cc2c(C=O)c(OC[C@H]3CO3)ccc2[nH]1 = 152 to 154 °C
18) Cc1cccc(Oc2c[nH]c(=S)[nH]c2=O)c1 = 210 °C
19) COCCOCOc1ccc(C(=O)c2nc3ccc(OCOCCOC)cc3s2)cc1 = 46 °C
20) O=C(Nc1ccc(-n2nc(C3CC3)cc2C2CC2)nc1)c1ccncc1F = 192 to 195 °C
21) COc1ccc(CCN(CCc2cccc(C(F)(F)F)c2)C(=O)CCCCC(N)=O)cc1OC = 125 to 126 °C
22) CN(Cc1ccc2c(Br)c(OCc3nnn[nH]3)ccc2c1)C(=O)c1cn(C)c2ccccc12 = 227 to 228 °C

---

READOUT_TYPE: melting point

1) CC1(c2ccc([N+](=O)[O-])cc2)Cc2cc(OCC(=O)O)c(Cl)c(Cl)c2C1=O (stereo not given) = 202 to 205 °C
2) O=C(NC(CCc1ccccc1)C(=O)Nc1n[nH]c(=S)s1)OCC1c2ccccc2-c2ccccc21 (stereo not given) = 186 to 187 °C
3) CCN(CC)CCNC(=O)c1cccc2cc3ccc(I)cc3nc12 = 80 to 82 °C
4) CCOC(=O)C(C(N)=O)c1cc(OC)c(OC)c(OC)c1 (stereo not given) = 93 °C
5) CN(c1cccc2cc(-c3ncc(CS(C)(=O)=O)s3)[nH]c12)S(=O)(=O)c1cccs1 = 242 to 243 °C
6) COc1ccc(-c2ccccc2-c2ccc(S(N)(=O)=O)cc2)cc1Cl = 180 °C
7) CCOC(=O)c1cn(C2CC2)c2c(F)c(NCC(O)CO)c(F)cc2c1=O (stereo not given) = 173 to 175 °C
8) O=C1Nc2ccccc2N(C(=O)CN2CCCCC2CN2CCCCC2)c2cscc21 (stereo not given) = 190 to 195 °C
9) Brc1cncc(OCc2ccc3ccccc3c2)c1 = 108 to 109 °C
10) Cc1ccc(NS(=O)(=O)c2ccc([N+](=O)[O-])cc2)cc1 = 170 to 172 °C
11) CC(C)(O)c1cnn2c(-c3ccc(F)c(-c4cccnc4)c3)cnc2n1 = 199 to 200 °C
12) NC(=O)CNS(=O)(=O)c1ccc(CCN2CC=C(c3c[nH]cc3-c3ccncc3)CC2c2ccc(F)cc2)cc1 (stereo not given) = 230 to 233 °C
13) O=c1[nH][nH]c(=O)n1-c1c(F)c(F)c(F)c(F)c1F = 180 to 182 °C
14) O=C(Nc1ccccc1)c1c[nH]c2c1C(=O)CCC2 = 225 to 226 °C
15) CCc1nc2c(N)nc3ccccc3c2n1CCC1(O)CCOCC1 = 243 to 244 °C
16) CC1CCC(C(C)C)C(C(=O)NC(C)(C)CO)C1 (stereo not given) = 123 °C
17) Clc1ccc(C2=CCCc3cc(Cl)c(Cl)cc32)cc1 = 106 to 108 °C
18) Cn1c2ccccc2c2c3c(c4c5ccccc5n(CCCCN)c4c21)C(=O)NC3=O = 177 to 181 °C
19) CC(C)(C)c1ccc(CCC(O)CC2CCCC2)cc1NC(=O)CC1c2ccccc2Oc2ccccc21 (stereo not given) = 142 to 143 °C
20) CC(=O)OC1CCC(n2c(Br)nc3cc(Cl)c(Cl)cc32)C1OC(C)=O (stereo not given) = 140 to 146 °C

Numbers sourced from a melting point compilation (Tetko et al.; mined from patent text by program, amines drawn as free bases though some values may be those of a salt).
